test system: Human alphaherpesvirus 3; experiment: Compound was evaluated for the antiviral activity against Varicella-Zoster virus (VZV) Oka strain by using plaque reduction assay.; type: functional; settings: read-out: ED50 (the source's name)
QUANTITY NAME: EC50 (µg/mL)

1 = O=c1[nH]c(=O)n([C@@H]2O[C@H](CO)[C@@H](O)[C@H]2O)cc1/C=C/Br
2 = C[C@]1(CO)OC(n2cc(/C=C/Br)c(=O)[nH]c2=O)[C@H](O)[C@@H]1O (stereo not given in full)
Lab note: check whether 1 or 2 shows the higher recorded EC50. Identify your pick by its label. 2

A = C[C@]1(CO)O[C@@H](n2cc(/C=C/Br)c(=O)[nH]c2=O)CC1O (single isomer, unassigned)
B = C[C@@]1(CO)O[C@H](n2ccc(N)nc2=O)C[C@H]1O
Lab note: check whether A or B shows the higher recorded EC50. Identify your pick by its label. B
(B: 0.094 µg/mL, A: 0.00077 µg/mL)

Every entry's value here was drawn from ChEMBL document CHEMBL1132073.
